# System: SK-MEL-28
# assay_details: Growth inhibition of human SK-MEL-28 cells by sulforhodamine B assay
# Assay type: functional
# conditions_used: read-out: GI50
outcome_measure: GI50 (µM)
Value expressed in µM; do not type the unit.

CC(C)=CC(=O)O[C@@H]1CC(C)(C)C[C@H]2C3=CC[C@@H]4[C@@]5(C)CCC(=O)C(C)(C)[C@@H]5CC[C@@]4(C)[C@]3(C)CC[C@@]12C(=O)O; 11.6
C/C=C(/C)C(=O)O[C@@H]1CC(C)(C)C[C@H]2C3=CC[C@@H]4[C@@]5(C)CCC(=O)C(C)(C)[C@@H]5CC[C@@]4(C)[C@]3(C)CC[C@@]12C(=O)O [LANTADENE A]; 12.8
CC1(C)C[C@@H](O)[C@]2(C(=O)O)CC[C@]3(C)C(=CC[C@@H]4[C@@]5(C)C/C(=C\C=C\c6ccccc6)C(=O)C(C)(C)[C@@H]5CC[C@]43C)[C@@H]2C1; 4.37
CC(C)=CC(=O)O[C@@H]1CC(C)(C)C[C@H]2C3=CC[C@@H]4[C@@]5(C)CC[C@H](O)C(C)(C)[C@@H]5CC[C@@]4(C)[C@]3(C)CC[C@@]12C(=O)O [Reduced Lantadene B]; 4.89

Q. Item C/C=C(/C)C(=O)O[C@@H]1CC(C)(C)C[C@H]2C3=CC[C@@H]4[C@@]5(C)CC[C@H](O)C(C)(C)[C@@H]5CC[C@@]4(C)[C@]3(C)CC[C@@]12C(=O)O [Reduced Lantadene A] : provide GI50
A. 1.9
